Data provenance: ChEMBL document CHEMBL3872257

Exercise: state measured inhibition for each of the compounds provided.
Molecular target: Amine oxidase [flavin-containing] A (Homo sapiens)
Sequence (P21397 whole entry): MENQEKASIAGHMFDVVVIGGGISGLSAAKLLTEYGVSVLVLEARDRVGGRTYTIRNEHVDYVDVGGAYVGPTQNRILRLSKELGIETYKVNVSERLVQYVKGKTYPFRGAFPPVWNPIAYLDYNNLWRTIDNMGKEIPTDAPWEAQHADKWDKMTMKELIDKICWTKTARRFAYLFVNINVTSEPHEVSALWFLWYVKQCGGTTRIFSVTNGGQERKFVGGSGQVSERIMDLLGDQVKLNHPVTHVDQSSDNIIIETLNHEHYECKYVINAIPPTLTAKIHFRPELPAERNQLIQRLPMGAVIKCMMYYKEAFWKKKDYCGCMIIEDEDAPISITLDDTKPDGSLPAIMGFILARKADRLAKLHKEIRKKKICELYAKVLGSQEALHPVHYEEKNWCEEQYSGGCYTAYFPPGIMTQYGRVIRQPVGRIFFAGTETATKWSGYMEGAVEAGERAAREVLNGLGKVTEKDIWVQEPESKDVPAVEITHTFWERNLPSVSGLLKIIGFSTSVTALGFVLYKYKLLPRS
Assay: Inhibition of human recombinant MAO-A using kynuramine as substrate at 20 uM measured after 30 mins by fluorescence assay relative to control
Conditions: 0.5 h
Write down the numeric answer in % and omit the unit.

# query: inhibition | item CCN(Cc1ccc(/C=C2\COc3cc(OC)c(OC)cc3C2=O)cc1O)Cc1ccccc1OC | system: Amine oxidase [flavin-containing] A (Homo sapiens)
14

Now give it for COc1cc2c(cc1OC)C(=O)/C(=C/c1ccc(CN3CCN(C)CC3)c(O)c1)CO2 too.
40.5

Now give it for COc1cc2c(cc1OC)C(=O)/C(=C/c1ccc(CN3CCCCC3)c(O)c1)CO2 too.
24.6

Now give it for COc1cc2c(cc1OC)C(=O)/C(=C/c1ccc(CN3CCOCC3)c(O)c1)CO2 too.
23

Now give it for CCN(Cc1ccccc1)Cc1c(O)cccc1/C=C1\COc2cc(OC)c(OC)cc2C1=O too.
9.8
